Tested on: HOP-92 NSCLC
protocolText: NCI tumour cell line growth inhibition, 48 h
Kindly return Yes if reported TGI is no lower than 50 µM; return No if it is lower.

1) CC1CN=C(N(C(=O)Nc2ccc(Cl)cc2)c2cccc(Cl)c2)S1 (stereo not given)	Yes
2) COc1ccc2cc(C(=O)N3CCC([C@@H](C)C(=O)NCc4ccc5c(c4)OCO5)CC3)[nH]c2c1	Yes
3) COc1c(O)cc2c(c1O)C(=O)C(Cc1ccc(O)cc1)CO2 (stereo not given)	Yes
4) CC12CP(=O)(O)CC1C2(Cl)Cl (stereo not given)	Yes
5) Cc1cc2c3c(nc2c2cc[nH]c(C)c12)CCCC3	No
6) Oc1cccc2ccc(SSc3ccc4cccc(O)c4n3)nc12	Yes
7) CCC(CO)Nc1nc(NCc2ccccc2)c2n[nH]c(C(C)C)c2n1 (stereo not given)	No
8) O=c1oc2ccc(F)cc2c(=O)n1-c1ccc(I)cc1F	No
9) CC(=O)OC(OC(C)=O)c1c2ccccc2cc2ccccc12	Yes
10) C1=C2C3=[N+](CCCC3)CC2Cc2sccc21 (stereo not given)	Yes
11) O=C(O)CN1CCN2CCCCCCCCN(CC1)CCN(CC(=O)O)CC2	Yes
12) O=C([O-])c1ccccc1Nc1ccccc1C(=O)[O-].[OH3+].[Zn+2]	No
13) C/C(COc1ccc2oc(-c3ccccc3)cc(=O)c2c1)=N\O	Yes
14) CCCCNC(=O)Oc1ccc(/C(=C(\C)c2ccc(OC)cc2)c2ccc(OCCN3CCCCC3)cc2)cc1	No

###

Consider the following molecules and their measured TGI readings.
Test system: SF-295 CNS
protocolText: NCI tumour cell line growth inhibition, 48 h
reportedEndpoint: TGI

1) C/C(=N\NC(=O)c1ccccc1O)c1c(O)cc(C)oc1=O	> 100 µM
2) Oc1ccc(O)c(-n2cccn2)c1	> 100 µM
3) O=S(=O)(O)c1ccc(N=Nc2ccc(N=Nc3c(O)ccc4ccc(S(=O)(=O)O)cc34)cc2)cc1	> 100 µM
4) CC12CP(=O)(O)CC1C2(Cl)Cl (stereo unspecified)	> 100 µM
5) COc1c(O)cc2c(c1O)C(=O)C(Cc1ccc(O)cc1)CO2 (stereo unspecified)	> 100 µM
6) O=C1CC=C2C3CC4N(CCC45c4ccccc4N1C25)C/C3=C\CO (stereo unspecified)	> 100 µM
7) COc1ccc2cc(C(=O)N3CCC([C@@H](C)C(=O)NCc4ccc5c(c4)OCO5)CC3)[nH]c2c1	> 100 µM
8) O=c1c2ccccc2ncn1COCc1ccccc1	> 100 µM
9) COc1ccc(N[C@H](CS(=O)c2ccc(C)cc2)C(F)(F)F)cc1 (stereo partly specified)	> 100 µM
10) Cc1cc2c3c(nc2c2cc[nH]c(C)c12)CCCC3	3.93 µM
11) Cc1c(C)c(S(=O)(=O)N(CCCN)OCCCN)c(C)c2c1OC(C)(C)CC2	30.4 µM

###

Consider the following compounds and their measured TGI readings.
Tested on: 786-0 renal
protocolText: NCI tumour cell line growth inhibition, 48 h
reportedEndpoint: TGI

1) CN1C(c2ccccc2)CC(=NO)CC1c1ccccc1 (stereo not drawn)	> 100 µM
2) Fc1ccccc1-c1cc(=S)c2cc3c(cc2[nH]1)OCO3	> 100 µM
3) CC(=O)OC(OC(C)=O)c1c2ccccc2cc2ccccc12	43.5 µM
4) O=C([O-])c1ccccc1Nc1ccccc1C(=O)[O-].[OH3+].[Zn+2]	57.7 µM
5) COc1cccc(C2SC(C)C(=O)N2NC(=O)C(O)c2ccccc2)c1 (stereo not drawn)	> 100 µM
6) [N-]=[N+]=C1C(=O)C2CC3CC1CC2C3 (stereo not drawn)	> 100 µM
7) O=c1cccccc1O	> 100 µM
8) CC[C@@]1(O)C(=O)OCc2c1cc1n(c2=O)Cc2c-1nc1ccccc1c2/C=N\NC(=O)C(N)Cc1ccc(O)cc1 (stereo partly drawn)	6.55 µM
9) COC(=O)CCCCCOS(=O)(=O)c1ccc(C)cc1	> 100 µM
10) NC(=O)c1ccc(I)c([N+](=O)[O-])c1	> 100 µM
11) CCN(CC)CCOCCOCC1(c2ccc(Cl)c(Cl)c2)CCCCC1	9.07 µM
12) CCOP(=O)(OCC)/C(=C\n1ccc(=O)[nH]c1=S)C(=O)OC	> 100 µM
13) CCOc1cc2c(cc1O)C=C[C@@H]1[C@@H]2CC[C@]2(C)[C@@H](O)CC[C@@H]12	> 43.4 µM
14) COC(=O)CC(C(C(=O)OCc1ccccc1)C(C)O)N1C(=O)OCC1c1ccccc1 (stereo not drawn)	> 100 µM
15) COC(=O)Cc1cccc2c(=O)c(S(=O)(=O)NC(=O)Nc3ccc(Cl)cc3)c(-c3ccccc3)oc12	> 100 µM
16) C=C1C2CC(OC(C)=O)C3(C)C(c4ccoc4)OC(=O)[C@@H](O)[C@]13OC1C[C@H](OC(C)=O)C(C)(C)[C@H](C(O)C(=O)OC)[C@]12C (stereo partly drawn)	> 100 µM
17) COc1nc(NC2OC(COC(C)=O)C(OC(C)=O)C(OC(C)=O)C2OC(C)=O)c(N=C(C)C(C)=O)c(=O)n1C (stereo not drawn)	> 100 µM
18) COc1cc(/C=C/C(=O)c2ccccc2O)ccc1OCCCOc1cc2c(cc1OC)C(=O)N1CCC[C@H]1C=N2	1.53 µM
